- Study system: GalNAc-T2 (Homo sapiens)
- Construct: made in house
- Sequence (Q10471 75-571 limits assumed): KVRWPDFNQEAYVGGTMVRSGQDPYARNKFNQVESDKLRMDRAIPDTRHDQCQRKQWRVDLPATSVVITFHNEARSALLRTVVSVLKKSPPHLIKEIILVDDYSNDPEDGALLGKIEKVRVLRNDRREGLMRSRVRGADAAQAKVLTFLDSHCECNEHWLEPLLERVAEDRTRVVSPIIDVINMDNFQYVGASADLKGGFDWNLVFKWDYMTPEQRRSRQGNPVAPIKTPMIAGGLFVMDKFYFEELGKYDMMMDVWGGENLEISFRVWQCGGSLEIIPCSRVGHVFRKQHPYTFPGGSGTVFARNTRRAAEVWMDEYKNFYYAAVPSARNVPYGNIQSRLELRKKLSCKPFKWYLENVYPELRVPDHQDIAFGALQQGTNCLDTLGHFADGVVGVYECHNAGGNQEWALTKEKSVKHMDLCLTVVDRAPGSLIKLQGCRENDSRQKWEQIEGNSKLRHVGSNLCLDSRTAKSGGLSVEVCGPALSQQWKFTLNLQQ
- Test details: SAXS with Ensemble Optimization Method: GalNAc-T2 conformations/oligomers with ligands; note: values in Å
- Test context: ligand molar ratio 1:10; GalNAc-T2 5 mg/ml; 25 mM TRIS pH 7.5, 10 mM MnCl2, 10 °C; maximum intramolecular distance, GNOM
Where a SMILES comes first, the peptide text is derived from it. The star is where a group is joined. αGalNAc = CC(=O)N[C@@H]1[C@@H](O)[C@@H](O)[C@@H](CO)O[C@@H]1*
Observable: Dmax (Å)

compound="CC(=O)NCC(=O)N[C@H](C(=O)N[C@H](C(=O)N1CCC[C@H]1C(=O)N[C@@H](CO)C(=O)N1CCC[C@H]1C(=O)N[C@H](C(=O)N1CCC[C@H]1C(=O)N[C@H](C(=O)N[C@H](C(=O)N[C@@H](CO)C(=O)N[C@H](C(=O)N[C@H](C(=O)N[C@@H](CO)C(=O)N[C@@H](C)C(N)=O)[C@@H](C)O[C@H]1O[C@H](CO)[C@H](O)[C@H](O)[C@H]1NC(C)=O)[C@@H](C)O)[C@@H](C)O)[C@@H](C)O)C(C)C)[C@@H](C)O)[C@@H](C)O [MUC5AC-13] (Ac-GTTPSPVPTTSTT(αGalNAc)SA-NH2; N-terminus assumed)" observable=Dmax result_units=Å numeric_result=112
compound="CC(=O)N[C@H]1[C@@H](OP(=O)(O)OP(=O)(O)OC[C@H]2O[C@@H](n3ccc(=O)[nH]c3=O)[C@H](O)[C@@H]2O)O[C@H](CO)[C@H](O)[C@@H]1O [UDP-GalNAc, reference compound]" observable=Dmax result_units=Å numeric_result=124
compound="O=c1ccn([C@@H]2O[C@H](COP(=O)(O)OP(=O)(O)O)[C@@H](O)[C@H]2O)c(=O)[nH]1 [UDP, uridine diphosphate, reference compound]" observable=Dmax result_units=Å numeric_result=123
